assay: Solubility of salts in water, pH of the saturated solution and identity of the precipitate; type: physicochemical; details: precipitate isolated after the solubility determination compared with the compound dissolved
Counter-ions that a name gives are not always drawn.
QUANTITY KIND: Precipitate

# annotated cases, reported Precipitate shown
| COMPOUND | RESULT |
| --- | --- |
| Cc1ccc(Sc2ccccc2C2CCNCC2)cc1 [Sebacoinic acid, 1,8-octanedioic acid 2:1] | =Start |
| Cc1ccc(Sc2ccccc2C2CCNCC2)cc1 [Glutaric acid, 1,5-pentanedioic acid 1:1] | =start |
| Cc1ccc(Sc2ccccc2C2CCNCC2)cc1 [Adipicacid, 1,6-hexanedioic acid 2:1] | =start |
| Cc1ccc(Sc2ccccc2C2CCNCC2)cc1 [Citric acid 2:1] | =Start |

Which Precipitate value belongs to Cc1ccc(Sc2ccccc2C2CCNCC2)cc1 [HCl] ?
=Start

Repeat for the following compound: Cc1ccc(Sc2ccccc2C2CCNCC2)cc1 [Fumaric acid 1:1]
=start

Repeat for the following compound: Cc1ccc(Sc2ccccc2C2CCNCC2)cc1 [Oxalic acid 1:1]
=Start
